Each record here notes measured pIC50.
target: Bcat-Halo (UniProt P35222); test: NanoBRET Abs IC50, HEK293 cells; Bcat-Halo / TCF4-Luc engagement
Sequence (P35222 whole entry): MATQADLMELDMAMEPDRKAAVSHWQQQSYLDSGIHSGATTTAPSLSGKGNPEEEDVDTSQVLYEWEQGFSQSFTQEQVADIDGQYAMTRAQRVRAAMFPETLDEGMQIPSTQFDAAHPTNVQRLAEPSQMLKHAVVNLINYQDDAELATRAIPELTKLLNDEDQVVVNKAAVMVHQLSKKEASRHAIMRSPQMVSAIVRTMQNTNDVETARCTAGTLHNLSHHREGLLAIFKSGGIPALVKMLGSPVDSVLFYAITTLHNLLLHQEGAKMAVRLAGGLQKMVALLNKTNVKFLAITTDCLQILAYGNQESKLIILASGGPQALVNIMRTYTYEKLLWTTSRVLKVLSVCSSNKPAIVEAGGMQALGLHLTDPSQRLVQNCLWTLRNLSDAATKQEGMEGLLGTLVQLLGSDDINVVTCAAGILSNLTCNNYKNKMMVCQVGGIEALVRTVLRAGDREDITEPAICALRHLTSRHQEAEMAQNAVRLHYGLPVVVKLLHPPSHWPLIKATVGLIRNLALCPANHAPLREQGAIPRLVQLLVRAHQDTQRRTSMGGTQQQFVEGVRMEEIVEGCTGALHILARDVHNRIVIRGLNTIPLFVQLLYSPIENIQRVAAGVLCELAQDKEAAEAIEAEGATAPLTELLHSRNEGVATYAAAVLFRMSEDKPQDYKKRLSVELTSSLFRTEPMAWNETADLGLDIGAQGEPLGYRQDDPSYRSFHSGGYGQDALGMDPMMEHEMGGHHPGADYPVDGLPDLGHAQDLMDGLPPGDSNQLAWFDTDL
pIC50: −log10 of the molar value. Starred links: 1 amine or outer side, 2 acyl side, 3 side chain; linkers in the order of their positions; H or OH if unused. Positions of bridges follow the written chain, without caps; N, C: chain ends. Non-standard residues stand in square brackets, D forms with d. Primed or numbered codes have the meaning given here. PyrS2″ = (S)-3-amino-1-((pent-4-en-1-yloxy)carbonyl)pyrrolidine-3-carboxylic acid (stapling residue), C=CCCCOC(=O)N1CC[C@@](N[*:1])(C(=O)[*:2])C1; B5(5) = 2,2-bis(4-pentenyl)glycine, 2-amino-2-(pent-4-en-1-yl)hept-6-enoic acid (stitching residue), C=CCCCC(CCCC=C)(N[*:1])C(=O)[*:2]; PyrS2 = (S)-3-amino-1-((pent-4-en-1-yloxy)carbonyl)pyrrolidine-3-carboxylic acid, C=CCCCOC(=O)N1CC[C@@](N[*:1])(C(=O)[*:2])C1; Phe(3-COOH) = N[C@@H](Cc1cccc(C(=O)O)c1)C(=O)O; Phe(2-CF3) = N[C@@H](Cc1ccccc1C(F)(F)F)C(=O)O; Bta = N[C@@H](Cc1csc2ccccc12)C(=O)O; αAllylPro = C=CC[C@@]1(C(=O)O)CCCN1; tBuAla = CC(C)(C)C[C@H](N)C(=O)O; Gly(cBu) = N[C@H](C(=O)O)C1CCC1; Ac5c = NC1(C(=O)O)CCCC1

{"columns": ["binder", "pIC50"],
 "data": [
  ["Ac-[αAllylPro]D[tBuAla][B5(5)]D[Phe(3-COOH)]AAFL[PyrS2″][Phe(2-CF3)][Bta]QLF-NH2 (staple 1-4, 4-11) [I-2381]", 5.68],
  ["Ac-[αAllylPro]D[tBuAla][B5(5)]D[Phe(3-COOH)]AAFL[PyrS2][Phe(2-CF3)][Bta]QLY-NH2 (staple 1-4, 4-11) [I-2392]", 5.07],
  ["Ac-[αAllylPro]D[tBuAla][B5(5)]D[Phe(3-COOH)]AAFL[PyrS2″][Phe(2-CF3)][Bta]QL[Ac5c]-NH2 (staple 1-4, 4-11) [I-2387]", 5.15],
  ["Ac-[αAllylPro]D[tBuAla][B5(5)]D[Phe(3-COOH)]AAFL[PyrS2″][Phe(2-CF3)][Bta]QL[Gly(cBu)]-NH2 (staple 1-4, 4-11) [I-2388]", 5.24]
]}
